- Species on record: Rattus norvegicus
- method: Selectivity for Sprague-Dawley rat DAT over rat M1 receptor
Please provide measured Ratio Ki for the entries that follow.
Enter a number only.

Query string: What does the data say about its Ratio Ki? Entry: CN1C2CCC1[C@@H](COC(=O)CCCc1ccc(N)cc1)[C@@H](OC(c1ccc(F)cc1)c1ccc(F)cc1)C2 (some centres not stated)
Result string: 12

Query string: Same thing, different molecule: COC(=O)CC[C@@H]1C2CCC(C[C@@H]1OC(c1ccc(F)cc1)c1ccc(F)cc1)N2C (some centres not stated)
Result string: 832

Query string: Same thing, different molecule: COC(=O)/C=C/[C@@H]1C2CCC(C[C@@H]1OC(c1ccc(F)cc1)c1ccc(F)cc1)N2C (some centres not stated)
Result string: 294

Query string: Same thing, different molecule: C=C[C@@H]1C2CCC(C[C@@H]1OC(c1ccc(F)cc1)c1ccc(F)cc1)N2C (some centres not stated)
Result string: 90

Query string: Same thing, different molecule: CN1C2CCC1[C@@H](CO)[C@@H](OC(c1ccc(F)cc1)c1ccc(F)cc1)C2 (some centres not stated)
Result string: 31

Query string: Same thing, different molecule: C=CCN1C2CCC1[C@@H](C(=O)OCC)[C@@H](OC(c1ccc(F)cc1)c1ccc(F)cc1)C2 (some centres not stated)
Result string: 1040

Query string: Same thing, different molecule: COC(=O)[C@@H]1C2CCC(C[C@@H]1OC(c1ccc(Cl)cc1)c1ccc(Cl)cc1)N2C (some centres not stated)
Result string: 30

Query string: Same thing, different molecule: CN1C2CCC1[C@@H](COC(=O)CCCc1ccc([N+](=O)[O-])cc1)[C@@H](OC(c1ccc(F)cc1)c1ccc(F)cc1)C2 (some centres not stated)
Result string: 18

Query string: Same thing, different molecule: CCCCN1C2CCC1[C@@H](C(=O)OCC)[C@@H](OC(c1ccc(F)cc1)c1ccc(F)cc1)C2 (some centres not stated)
Result string: 391

Query string: Same thing, different molecule: COC(=O)[C@@H]1C2CCC(C[C@@H]1OC(c1ccc(F)cc1)c1ccc(F)cc1)N2C (some centres not stated)
Result string: 45

Query string: Same thing, different molecule: CCOC(=O)[C@@H]1C2CCC(C[C@@H]1OC(c1ccc(F)cc1)c1ccc(F)cc1)N2C (some centres not stated)
Result string: 275

Query string: Same thing, different molecule: CCOC(=O)[C@@H]1C2CCC(C[C@@H]1OC(c1ccc(F)cc1)c1ccc(F)cc1)N2 (some centres not stated)
Result string: 1930

----------
Consider the following pKi values measured on Norepinephrine transporter (Rattus norvegicus, UniProt Q9WTR4).
Sequence (Q9WTR4 whole entry): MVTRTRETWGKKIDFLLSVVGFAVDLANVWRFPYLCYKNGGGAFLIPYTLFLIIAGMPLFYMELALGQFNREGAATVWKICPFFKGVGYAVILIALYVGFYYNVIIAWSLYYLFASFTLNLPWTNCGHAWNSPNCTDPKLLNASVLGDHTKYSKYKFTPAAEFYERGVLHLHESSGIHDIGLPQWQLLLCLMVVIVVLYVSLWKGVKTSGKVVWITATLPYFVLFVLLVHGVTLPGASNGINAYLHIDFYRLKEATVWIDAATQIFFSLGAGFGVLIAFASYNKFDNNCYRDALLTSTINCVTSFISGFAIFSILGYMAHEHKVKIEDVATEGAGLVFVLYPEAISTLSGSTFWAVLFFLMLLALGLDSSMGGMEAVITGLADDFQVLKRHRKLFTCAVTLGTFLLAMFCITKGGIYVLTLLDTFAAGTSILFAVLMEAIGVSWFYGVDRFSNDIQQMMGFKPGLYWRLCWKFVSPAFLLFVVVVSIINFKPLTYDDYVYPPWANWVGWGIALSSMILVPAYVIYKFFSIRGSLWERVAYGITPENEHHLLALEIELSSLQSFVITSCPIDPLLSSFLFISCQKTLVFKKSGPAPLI
// field semantics: pKi = negative decimal log of concentration (mol/L)

Query string: What does the data say about its pKi? Entry: C=C[C@@H]1C2CCC(C[C@@H]1OC(c1ccc(F)cc1)c1ccc(F)cc1)N2C (stereo partly specified)
Result string: 6.33

Query string: Same thing, different compound: CCCCN1C2CCC1[C@@H](C(=O)OCC)[C@@H](OC(c1ccc(F)cc1)c1ccc(F)cc1)C2 (stereo partly specified)
Result string: 6.24

Query string: Same thing, different compound: C=CCN1C2CCC1[C@@H](C(=O)OCC)[C@@H](OC(c1ccc(F)cc1)c1ccc(F)cc1)C2 (stereo partly specified)
Result string: 6.03

Query string: Same thing, different compound: CN1C2CCC1[C@@H](CO)[C@@H](OC(c1ccc(F)cc1)c1ccc(F)cc1)C2 (stereo partly specified)
Result string: 6.01

Query string: Same thing, different compound: COC(=O)[C@@H]1C2CCC(C[C@@H]1OC(c1ccc(Cl)cc1)c1ccc(Cl)cc1)N2C (stereo partly specified)
Result string: 5.67

Query string: Same thing, different compound: CN1C2CCC1[C@@H](COC(=O)CCCc1ccc(N)cc1)[C@@H](OC(c1ccc(F)cc1)c1ccc(F)cc1)C2 (stereo partly specified)
Result string: 6.36

Query string: Same thing, different compound: COC(=O)CC[C@@H]1C2CCC(C[C@@H]1OC(c1ccc(F)cc1)c1ccc(F)cc1)N2C (stereo partly specified)
Result string: 6.34

Query string: Same thing, different compound: CN1C2CCC1[C@@H](COC(=O)CCCc1ccc([N+](=O)[O-])cc1)[C@@H](OC(c1ccc(F)cc1)c1ccc(F)cc1)C2 (stereo partly specified)
Result string: 5.67

Query string: Same thing, different compound: CCOC(=O)[C@@H]1C2CCC(C[C@@H]1OC(c1ccc(F)cc1)c1ccc(F)cc1)N2 (stereo partly specified)
Result string: 6.25

Query string: Same thing, different compound: COC(=O)/C=C/[C@@H]1C2CCC(C[C@@H]1OC(c1ccc(F)cc1)c1ccc(F)cc1)N2C (stereo partly specified)
Result string: 6.57

Query string: Same thing, different compound: CCOC(=O)[C@@H]1C2CCC(C[C@@H]1OC(c1ccc(Cl)cc1)c1ccc(Cl)cc1)N2C (stereo partly specified)
Result string: 5.47

// provenance: ChEMBL document CHEMBL1137401
